B1: glmS ribozyme (parent)
chain: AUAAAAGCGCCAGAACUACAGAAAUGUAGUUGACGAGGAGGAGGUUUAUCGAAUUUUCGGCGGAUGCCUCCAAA

Variants of: B1
Assay: self-cleavage kobs at 2500 uM GlcN6P; higher = faster cleavage; RNA array
Conditions: with glucosamine-6-phosphate
Variants at the floor of the assay were thinned out.
EXPERIMENTAL READOUT: self-cleavage kobs at 2500 uM GlcN6P (s⁻¹)
// units = s⁻¹; emit number, no label

// known answers, use as guide
[
  {
    "VARIANT DESCRIPTOR": "U45G U54A",
    "self-cleavage kobs at 2500 uM GlcN6P, s⁻¹": 0.00456
  },
  {
    "VARIANT DESCRIPTOR": "G40A G41A",
    "self-cleavage kobs at 2500 uM GlcN6P, s⁻¹": 0.000163
  },
  {
    "VARIANT DESCRIPTOR": "A15C U31G",
    "self-cleavage kobs at 2500 uM GlcN6P, s⁻¹": 0.00159
  },
  {
    "VARIANT DESCRIPTOR": "G40C U65G",
    "self-cleavage kobs at 2500 uM GlcN6P, s⁻¹": 0.00036
  },
  {
    "VARIANT DESCRIPTOR": "U47C C50U",
    "self-cleavage kobs at 2500 uM GlcN6P, s⁻¹": "2.69e-05"
  },
  {
    "VARIANT DESCRIPTOR": "C10U C68G C70U",
    "self-cleavage kobs at 2500 uM GlcN6P, s⁻¹": "5.98e-05"
  },
  {
    "VARIANT DESCRIPTOR": "G29A U56C",
    "self-cleavage kobs at 2500 uM GlcN6P, s⁻¹": 0.000226
  },
  {
    "VARIANT DESCRIPTOR": "G29C G40C",
    "self-cleavage kobs at 2500 uM GlcN6P, s⁻¹": "7.4e-05"
  },
  {
    "VARIANT DESCRIPTOR": "A12G C67G C68A",
    "self-cleavage kobs at 2500 uM GlcN6P, s⁻¹": "6.87e-05"
  },
  {
    "VARIANT DESCRIPTOR": "A15C U54C G66U C70U",
    "self-cleavage kobs at 2500 uM GlcN6P, s⁻¹": 0.000351
  }
]

Note self-cleavage kobs at 2500 uM GlcN6P for the variant shown: U47A G66C
0.000448

Give the reported value of self-cleavage kobs at 2500 uM GlcN6P for this record: U46C C70U
0.00301

Given the variant A12C U30A U56A , write its reported self-cleavage kobs at 2500 uM GlcN6P.
0.00105
